Assay: yeast display, Sf9 membrane polyspecificity reagent, FACS + sequencing; frameworks hold sequencing errors
reported.endpoint: polyreactivity (PSR sort gate)

| sequence.code | polyreactivity (PSR sort gate) |
| --- | --- |
| QVQLVESGGGLVQAGGSLRLSCAASGRIFAYYTMGWYRQAPGKERELVATISGSGASTYYADSVKGRFTISRDNAKNTDYLQMNSLKPEDTAVYYCAATRFYATIYDYWGQGTQVTVSS | high polyreactivity |
| QVQLVESGGGLVQAGGSLRLSCAASGSIFDVYDMGWYRQAPGKERELVASISDSGSSTYYADSVKGRFTISRDNAKNTVYLQMNSLKPEDTAVYYCAAGYYVDRSIYNYWGQGTQVTVSS | low polyreactivity |
| QVQLVESGGGLVQAGGSLRLSCAASGIIFSDNAMGWYRQAPGKERELVAAIDWSGGSTYYADSVKGRFTISRDNAKNTVYLQMNSLKPEDTAVYYSAAEYRDYVPVNDTGDYWGQGTQVTVSS | low polyreactivity |
| QVQLVESGGGLVQAGGSLRLSCAASGSIFGGYGMGWYRQAPGKERELVAVITKRGGSTYYADSVKGRFTISRDNAKNTVYLQMNSLKPEDTAVYYCNKVGYYASVLGYDYWGQGTQVTVSS | high polyreactivity |

For the next question, use this sequence.
Problem: Which polyreactivity (PSR sort gate) value is on record for QVQLVESGGGLVQAGGSLRLSCAASGSTFGFYDMGWYRQAPGKERELVAAITSGDITYADSVKGRFTISRDNAKNTVYLQMNSLKPEDTAVYYCATTSYGYWFGYIPEVDYWGQGTQVTVSS ?
Result: low polyreactivity

----------
Assay: yeast display, Sf9 membrane polyspecificity reagent, FACS + sequencing; frameworks hold sequencing errors
reported.endpoint: polyreactivity (PSR sort gate)

| sequence.code | meas.value |
| --- | --- |
| QVQLVESGGGLVQAGGSLRLSCAASGSTYDSNAMGWYRQAPGKERELVAAIDWSGGSTYYADSVKGRFTISRDNAKNTVYLQMNSLKPADTAVYYCAADDSSINYGDFDYWGQGTQVTVSS | low polyreactivity |
| QVQLVESGGCLVQAGGRLRLSCAASGFIFHGYAMGWYRPAPGKERELVAAISSRGGTTYYADSVQGRFTISRDKAKTTVYLQMNSLKPEDSAVDDCAADKIRYITSPVPFYYWGQGTQVTVSS | high polyreactivity |
| QVQLVESGGGLVQAGGSLRLSCAASGSIFDPYAMGWYRQAPGKERELVAAITYSVGGTTYYADSVKGRFTISRDNAKNTVYLQMNSLKPEDTAVYYCAAEWWGNPFDYWGQGTQVTVSS | high polyreactivity |
| QVQLVESGGGLVQAGGSLRLSCAASGSIFSGNAMGWYRQAPGKERELVASINRSGGSTYYADSVKGRFTISRDNAKNTVYLLMNSLKPEDTAVYYCAARRVWLAGYDSWGQGTQVTVSS | low polyreactivity |

For the next question, use this sequence.
Problem: Which polyreactivity (PSR sort gate) value is on record for QVQLVESVGGLVQAGGSLRLSCAASGFISYYYAMGWYRQAPGKEREFVAAITSSGGSTRYADSVKGRFTISRDNAKNPVYLQMNSLKPEDTAVYYCAARKARPPFPHPFDYYWGQGTQVTVSS ?
Result: low polyreactivity

----------
Assay: yeast display, Sf9 membrane polyspecificity reagent, FACS + sequencing; frameworks hold sequencing errors
reported.endpoint: polyreactivity (PSR sort gate)

Example sequences with recorded polyreactivity (PSR sort gate):
| sequence.code | meas.value |
| --- | --- |
| QVQLVESGGGLVQAGGRLRLSCSASGSTFYPNAMGWYRQAPGKERELGAAISWSGGSTYYADSVKGRFTISRDNAKKTVDLQMNSLKPEDTAVYYCAAYYYGVRKYDYWGQGTQVTVSS | high polyreactivity |
| QVQLVESGGGLVQAGGSLRLSCAASGSTFWYYAMGWYRQAPGKERELVAAITRGASTNYADSVKGRFTISRDNAKNTVYLQMNSLKPEDTAVYYSAAGPARWKGYYWGQGTQVTVSS | high polyreactivity |
| QVQRVESGGGLVQAGGSLRLSCAASGFTLLPNAMGWYRQAPGKETELVAAITASGGRTYYADSVKGRFTISRDNAKNTVYLQMNSLKPEDTAVYSCNADWQDDLAGYDVDYWGQGTQVTGSS | low polyreactivity |
| QVQLVESGRGLVQEGGSLRLSCAASGRIFSAYAMGWYRQAPVKERELVAAITWSGANTDYADSVKGRFTISRDNAKNNVYLQMNSLKPEDTAVYYCNASVGRDSAYDYLGQGTQVTVSS | low polyreactivity |
| QVQLVESGGGLVQAGGSLRLSCAASGSIFTFYAMGWYRQAPGKERELVATINRIGGNTYYADSVKGRFTISRDNAKNTVYLQMNSLKPEDTAVYYCAKLYGSANGYDYWGQGTQVSVSS | low polyreactivity |
| QVQLVESGGGLVQAGGSLRLSCAASGRTIYWNAMVWSRQAPGKERELVAAISNGGTTTYYADSVKGRFTISRDNAKNTVYLQMNSLKPEDTAVYYCAGDIRYFDYDYWGQGTQLTVSS | high polyreactivity |
| QVQLEESGGGLVQAGGSLRLSCAASGFIFSWYVMGWYRQAPGKERELVAAISQSGGDTYYADSVKGRFTISRDNAKNTVYLQMNSLKPEDTAVYYCAVGRVGRFYYWGQGTQVTVSS | high polyreactivity |
| QVQLVESGGGLVQAGGSLRLSCAASGSTSSLNAMGWYRQAPGKEREFVATISFGGGRTYYADSVKGRFTISRDNAKNTVYLQMNSLKPEDTAVYYCAAVGSRWFSQTWRDYWGQGTQVTVSS | high polyreactivity |

Problem: Which polyreactivity (PSR sort gate) value is on record for QVQLVESGGGLVQAGGSLRLSCAASGSIFWQYAMGWYRQAPGKERELVAAINWSGDTTYYADSVKGRFTISRDNAKNTVYLQMNSLKPEDTAVYYCAAVGGVSFGGSPKTHAGEDYWGQGTQVTVSS ?
Result: low polyreactivity

Problem: Which polyreactivity (PSR sort gate) value is on record for QVQLVESGGGLVQAGGSLRLSCAASGRTLRRYAMGWYRQAPGKERELVAGISRNGGSTYYADSVKGRFTISRDNAKNTVYLQMNSLKPDDTAVYYCNKVAYPYSILRYGYWGLGTQVTVSS ?
Result: high polyreactivity

Problem: Which polyreactivity (PSR sort gate) value is on record for QVQLQESGACLVLAGGSLRMSCASSGYIFDTCPMGGYRQAPGKEREFVASIDHGSNTYYADSVKGRFTISRDSAKNTVYLQLNSLKPEDTAVYYCAVRDDGSYTYGNWGQGTQVSVSS ?
Result: high polyreactivity
